Test: Toxicity liver stage against HepG2, at 10uM
Assay type: cell-based
Design: test concentration 10 uM, cell line HepG2-A16-CD81EGFP
Conditions: human, HepG2-A16-CD81EGFP cells; read-out: INHIBITION
MEASURE: cytotoxicity at 10 µM (%)

>>> recorded_number("Cn1ccnc1CNc1c(F)cccc1-n1cccn1")
-5.2
>>> recorded_number("CCn1ncc2c1C(COCC1CC1)N(Cc1ccccn1)CC2 (centres undefined)")
10.9
>>> recorded_number("CNc1ncc(C(=O)N2CCC(c3ccccc3C(=O)O)C2)cn1 (centres undefined)")
-7.67
>>> recorded_number("Cc1nc(C2CCN(C(=O)c3cc(C4CC4)[nH]n3)CC2)no1")
-6.44
>>> recorded_number("Cc1nc(CN2C[C@@H]3CN(C(=O)[C@H]4CCCO4)C[C@@H]3C2=O)cs1")
-81.5
>>> recorded_number("N#Cc1cccnc1N1CCCN(C(=O)CCc2nccs2)CC1")
-11.5
>>> recorded_number("COCCCN(C)c1cc(C(F)(F)F)nc(-c2cccnc2)n1")
-4.83
>>> recorded_number("Cc1ccc(SCCN(C)C(=O)c2cn(CCN)nn2)cc1")
-4.7
>>> recorded_number("COCCn1cc2c(n1)C(CNCc1ccsc1)OCC2 (centres undefined)")
3.89
>>> recorded_number("Cc1cccc(NC(=O)C2CCc3ccccc3N2)c1 (centres undefined)")
-5.92
>>> recorded_number("CC(=O)Nc1ccc2nc(-c3nccn3CCCN(C)C)ccc2c1")
-6.07
>>> recorded_number("C[C@H]1CN(CC2CCOCC2)C[C@@]12CCN(Cc1cccnc1)C2=O")
1.73
>>> recorded_number("COC(=O)c1ccc(C(=O)NCc2nn(C)c3c2COCC3)cc1")
7.91
>>> recorded_number("CCCS(=O)(=O)NCC(C)(O)c1ccsc1 (centres undefined)")
-1.7
>>> recorded_number("Cc1nnn2c1COCC(CNC(=O)c1ccc3[nH]ccc3c1)C2 (centres undefined)")
-10.7
>>> recorded_number("CC(C)c1nn(CC(=O)N2CCCC2)c(=O)c2c1cnn2C(C)(C)C")
1.12
>>> recorded_number("Cc1cccc(CO[C@@H]2CO[C@@]3(CCN(S(=O)(=O)N(C)C)C3)C2)n1")
4.14
>>> recorded_number("CCCc1cc(C(=O)N2CCOC(c3nc(-c4cccs4)no3)C2)no1 (centres undefined)")
8.37
>>> recorded_number("CN1CCN(C(=O)c2cccn2C)Cc2cccnc21")
5.73
>>> recorded_number("CCc1nccn1C1CCCN(C(=O)c2cncn2-c2ccccc2)C1 (centres undefined)")
5.62
>>> recorded_number("Cc1cc(CCC(N)=O)cc(C2CCCN2Cc2ccccn2)n1 (centres undefined)")
-16.7
>>> recorded_number("COCCSCC(=O)NCc1ccc(N(C)C)cc1")
19
>>> recorded_number("Cc1nc(C(=O)N2CCN(S(=O)(=O)N(C)C)CC2)c(-c2ccccc2)s1")
3.67
>>> recorded_number("Cn1nc(C(=O)N2CCSCC2)cc1NC(=O)c1ccco1")
1.11

----------
Assay: Toxicity liver stage against HepG2, at 10uM
Type: cell-based
Set-up: test concentration 10 uM, cell line HepG2-A16-CD81EGFP
Conditions: human, HepG2-A16-CD81EGFP cells; read-out: INHIBITION
cytotoxicity at 10 µM values, listed per item
MEASURE: cytotoxicity at 10 µM

>>> result("O=C(O)c1c[nH]c2cc(NS(=O)(=O)c3cccc(F)c3F)ccc12")
"5.08%"
>>> result("O=C(O)c1cc2c(nc1-c1ccoc1)CCN(Cc1ccco1)CC2")
"-78.9%"
>>> result("CN1CCC(c2cncc(-c3cccc(Cl)c3)n2)CC1")
"-20.8%"
>>> result("COC(=O)CCN(C)C(=O)c1csc(Cc2ccccc2F)n1")
"9.38%"
>>> result("CCN(CC)c1nc2sc(C(=O)NC(C)(C)C(=O)OC)cc2s1")
"3.58%"
>>> result("CN1CCCCC1Cc1nc2c(cc1C(N)=O)CCC2 (centres undefined)")
"-9.55%"
>>> result("COCCN1CC[C@H](O)[C@@H]1Cc1ccccc1")
"-10%"
>>> result("Cc1n[nH]c2c1C(c1ccc(F)cc1)SCC(=O)N2 (centres undefined)")
"2.06%"
>>> result("O=C1CNCC(C(=O)N2CC(Oc3ccccc3Cl)C2)N1 (centres undefined)")
"10.9%"
>>> result("O=C(C1CCCO1)N1CCc2ncnc(NC3CCC3)c2CC1 (centres undefined)")
"-5.16%"
>>> result("Cc1cc(F)ccc1S(=O)(=O)N1CCN(C)Cc2ccccc21")
"4.06%"
>>> result("Cc1cnc(CCN(C)C(=O)c2ccc(O)nc2C)s1")
"-1.56%"
>>> result("CC(c1ccc(S(N)(=O)=O)cc1)N(C)C(=O)c1ccccc1I (centres undefined)")
"-0.629%"
>>> result("CN(CC1CCCCC1)C(=O)c1ccc(-n2ncc(C#N)c2N)cc1")
"0.347%"
>>> result("Cc1nnsc1CN1C[C@@H]2CC[C@H]1CN(Cc1ccc(F)cc1)C2")
"-7.44%"
>>> result("CNC(=O)c1cnc(/C=C/c2ccc(OC)c(O)c2)s1")
"-11.1%"
>>> result("CSc1ccc(NC(=O)Cc2cccc(O)c2)nc1")
"-4.3%"
>>> result("Cc1nn(C2CCCC2)c2nc(C(C)(C)CN3CCN(C)CC3)[nH]c12")
"-6.61%"
>>> result("Cc1nc[nH]c1CN(Cc1ccccc1)C1CC(C)(C)NC(C)(C)C1")
"0.968%"
>>> result("CCOC(C(=O)N1CCn2c(C)nnc2C1)c1ccccc1 (centres undefined)")
"4.93%"
>>> result("Cc1cc(N2CCc3cncnc3C2)n2nc(C(F)(F)F)nc2n1")
"6.25%"
>>> result("CC(C)C1CN(S(C)(=O)=O)CCCN1Cc1ccc(F)cc1 (centres undefined)")
"1.81%"
>>> result("CC(=O)N1C[C@H](NC(=O)c2csc(C(C)C)c2)[C@@H](C(C)C)C1")
"-18.2%"
>>> result("c1ccn(Cc2nnc3n2CCCN(Cc2ccoc2)C3)c1")
"0.993%"

----------
Experiment: Toxicity liver stage against HepG2, at 10uM
Format: cell-based
Design: test concentration 10 uM, cell line HepG2-A16-CD81EGFP
Details: human, HepG2-A16-CD81EGFP cells; read-out: INHIBITION
MEASURE: cytotoxicity at 10 µM (%)

>>> recorded_number("CN(Cc1ccc2c(c1)OCCO2)Cc1nnnn1-c1ccccc1")
20.5
>>> recorded_number("CC(C)CCc1n[nH]c(C(=O)O)c1I")
-1.93
>>> recorded_number("Cc1cnn(C2CN(Cc3nnc(C4CC4)o3)C2)c1")
-6.49
>>> recorded_number("c1cncc(-c2noc(CN3CCCC3Cn3cccn3)n2)c1 (configuration not stated)")
-4.74
>>> recorded_number("Cc1ncc(CN(C)C2CCCN(CCc3ccccc3)C2)n1C (configuration not stated)")
-4.17
>>> recorded_number("CCc1ccc(C(=O)N2CCN(CC(O)c3ccccc3)CC2)o1 (configuration not stated)")
-2.54
>>> recorded_number("O=C(c1cncs1)N1CCc2[nH]nc(Nc3ccccc3)c2C1")
8.26
>>> recorded_number("CN(C)S(=O)(=O)N1C[C@@H](Oc2ccccn2)[C@H]2OCCC[C@H]21")
1.16
>>> recorded_number("CCc1ncc(C(=O)N(C)Cc2cc(-c3ccncc3)no2)cn1")
-13.2
>>> recorded_number("COC(=O)c1cc(C2CC2)nc2c(Cl)cnn12")
14.7
>>> recorded_number("OC12CCC(CC1)N(Cc1ccc(F)cc1)C2CN1CCOCC1 (configuration not stated)")
5.29
>>> recorded_number("CCc1nc(CC(=O)N2CCCCC2Cn2cccn2)cs1 (configuration not stated)")
-17.6

----------
cytotoxicity at 10 µM values, listed per item
Assay: Toxicity liver stage against HepG2, at 10uM
Assay type: cell-based
Parameters: test concentration 10 uM, cell line HepG2-A16-CD81EGFP
Details: human, HepG2-A16-CD81EGFP cells; read-out: INHIBITION
MEASURE: cytotoxicity at 10 µM (%)

>>> recorded_number("Cc1cc(C)n(C2CN(CC(=O)NCC(C)(C)N3CCOCC3)C2)n1")
-3.42
>>> recorded_number("Cc1ccccc1CNC(=O)N1CC[C@@H]2CN(C)S(=O)(=O)[C@@H]2CC1")
-0.39
>>> recorded_number("CC(Cn1cccn1)NS(=O)(=O)Cc1ccccc1 (configuration not stated)")
6.8
>>> recorded_number("Cc1nc(N)nc(C)c1CC(=O)N1CCCN(CC2CC2)C(C(C)C)C1 (configuration not stated)")
-142
>>> recorded_number("N#Cc1cccc(CN2C[C@@H](NC(=O)C3CC3)[C@H]3OCCC[C@H]32)c1")
6.44
>>> recorded_number("O=C(c1cccs1)N1CC[C@@H]2[C@H]1CCC(=O)N2c1ccccc1")
-97.5
>>> recorded_number("CCOc1cncc(NCCc2nnc3ccccn23)n1")
9.84
>>> recorded_number("CC(c1ccco1)N(C(=O)COc1ccc(C#N)cc1)C1CC1 (configuration not stated)")
-6.6
>>> recorded_number("CCC1CCCN(Cc2nc3ccccc3c(=O)[nH]2)C1 (configuration not stated)")
-46
>>> recorded_number("O=C(NCc1ccc(CO)cc1)C1CCOc2ccccc2C1 (configuration not stated)")
-3.54
>>> recorded_number("CCC1c2ccsc2CCN1C(=O)NCCc1ccccn1 (configuration not stated)")
-12.4
>>> recorded_number("Cc1nc(C2CCCN2CC(=O)NCCOc2cccc(F)c2)no1 (configuration not stated)")
-16.3
>>> recorded_number("CN(C)c1cccc(C2CCCN2Cc2nnnn2C2CC2)c1 (configuration not stated)")
5.15
>>> recorded_number("CC(C)C(C)(O)CNc1cccc(F)c1C#N (configuration not stated)")
-8.87
>>> recorded_number("CS(=O)(=O)N1CCCC1C(=O)Nc1cnc2n1CCCC2 (configuration not stated)")
2.72
>>> recorded_number("CN(C)CCN1CCN(Cc2cccs2)Cc2cccnc21")
-3.24
>>> recorded_number("CN1CCC(CNC(=O)c2cccc(NC(N)=O)c2)c2ccccc21 (configuration not stated)")
3.86
>>> recorded_number("COCC1CN(C(=O)c2ccoc2)Cc2cnn(CC3CCOCC3)c21 (configuration not stated)")
2.77
>>> recorded_number("CC1=NC2(CCN(CC(C)c3ccccc3)CC2)C(=O)N1 (configuration not stated)")
5.33
>>> recorded_number("O=C1N(Cc2ccc(F)c(F)c2)CCCC1(O)CNCC1CCCCC1 (configuration not stated)")
10.5
>>> recorded_number("Cc1cc(C)n(-c2cncc(N3CCC(C(=O)N(C)C)CC3)n2)n1")
-16
>>> recorded_number("CC(C)c1n[nH]c(C(=O)Nc2cc[nH]n2)c1Br")
-9.73
>>> recorded_number("O=C(CC1COCCN1C(=O)c1cscn1)c1ccccc1 (configuration not stated)")
6.24
>>> recorded_number("CC(Nc1ccc(C#N)cc1F)c1cccc(S(N)(=O)=O)c1 (configuration not stated)")
-3.86
>>> recorded_number("O=C(c1ccncn1)N1CCC[C@]2(C[C@@H](OCc3ccccn3)CO2)C1")
-72.9
>>> recorded_number("COc1cc(NC(=O)NCc2nccn2C)ccc1Br")
-9.11
>>> recorded_number("CS(=O)(=O)N1CC[C@@H](CC(=O)O)[C@@H](CC2=NCCc3cc(F)ccc32)C1")
0.699
>>> recorded_number("O=C(CCc1nc2cc(Br)cnc2[nH]1)NCc1cccnc1")
-0.874
>>> recorded_number("Cc1c(C(=O)NC2=NCCS2)cnn1-c1ccc(Br)cc1")
-0.647
>>> recorded_number("C1CCN(CCOC2CCNCC2)CC1")
6.88
>>> recorded_number("COc1ccc(C2CCCN2C(=O)CCNc2ncccn2)cc1 (configuration not stated)")
-13.9
>>> recorded_number("CCS(=O)(=O)N1CCN(Cc2cccnc2)c2nc(C)ccc2C1")
-70.3
>>> recorded_number("CCCOCCCNc1nccc(-c2cn(C)nc2C)n1")
-10.5
>>> recorded_number("Cc1ccc(CN2CCCn3c(nc(Cn4cncn4)cc3=O)C2)s1")
-1.6
>>> recorded_number("CN(C(=O)CC1=CCCCC1)C1CCCN(CCc2ccccc2)C1 (configuration not stated)")
7.23
>>> recorded_number("CC(NC(=O)CCOc1ccc(F)cc1)c1nnc2n1CCCCC2 (configuration not stated)")
-8.71
>>> recorded_number("Cc1noc(C)c1CN1CCn2cc(CN3CCOCC3)nc2C1")
4.71
>>> recorded_number("Nc1ncc(C(=O)N2CCC(O)(CO)CC2)c(-c2ccccc2)n1")
-144
>>> recorded_number("CCC(CO)N(Cc1ccco1)C(=O)c1sccc1NC(C)=O (configuration not stated)")
3.36
>>> recorded_number("O=C(CC1CCCC1)N1C[C@@H]2CN(Cc3ccoc3)CCO[C@@H]2C1")
-79.3
>>> recorded_number("CN(Cc1nnc(C2CC2)n1C)C1CCN(Cc2ccccc2)C1 (configuration not stated)")
-4.45
>>> recorded_number("Cc1nnc(SCCNC(=O)CC2CCc3ccccc32)s1 (configuration not stated)")
-3.13
>>> recorded_number("O=C(CN1CCOCC1)Nc1ncc(Br)cc1Br")
10.2
>>> recorded_number("O=C(Nc1nc2c(s1)CN(S(=O)(=O)C1CC1)CC2)c1c(F)cccc1F")
-14.1
>>> recorded_number("Cn1cc(C(=O)NCc2cncc3c2CCN(CC2CC2)C3)cn1")
-103
>>> recorded_number("O=C(Cc1ccsc1)N1CCC(c2noc(-c3cccnc3)n2)CC1")
-18.2
>>> recorded_number("CCCc1cc(C(=O)N2CCCC2c2cccnc2)[nH]n1 (configuration not stated)")
-9.81
